B1: F1*; the commonest letter at each place (parent)
chain: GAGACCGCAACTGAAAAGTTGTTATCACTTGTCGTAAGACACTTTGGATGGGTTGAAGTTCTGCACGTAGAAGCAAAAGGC

Variants of: B1
Test: fraction ligated after 30 min (ligated reads / total reads); higher = more ligase activity
Conditions: with F1*sub RNA substrate (template-directed ligation), 42 °C
Could you label it T if measured fraction ligated is 0.8 or higher, and F otherwise?

| Mutation | Discrete Label |
| --- | --- |
| G31T A48T | F |
| A24G T49C | F |
| T23A G55C | F |
| A24T T43A | F |
| C40G A48T | F |
| A27T C33T | T |
| G47C | F |
| T25A C33T | F |
| C33G G55C | F |
| C26A C42G | F |
| G38T C42T | T |
| C26T A27G | F |
| G34A G38T | T |
| A41G T43C | F |
| A24G A48T | F |
| C40G G47T | F |
| A37G G38T | T |
| T29G T45G | F |
| T23C A24C | F |
| A24C A39G | F |
| C26G G38T | F |
| T30G G50T | F |
| A24T A41G | F |
| T25A G46A | F |
| A24T C33G | F |
| G46T T49A | F |
| T23G T49G | F |
| T32C G34T | F |
| C26T T44A | T |
| T43C T44A | T |
| A37G C40G | T |
| G34A G38A | T |
| T43C T49G | F |
| C26T G31A | F |
| T45C G47A | F |
| T30C G47T | F |
| A24T G46T | F |
| T25G A56G | F |
| T32C G55A | F |
| A24G C40A | F |
| G34A A48C | F |
| C33G A56C | T |
| C42A T45A | F |
| T43G G47T | F |
| G47A A48C | F |
| T25G G38A | F |
| C26T A48G | F |
| C42T T45G | F |
| A27C A56G | F |
| T25A A37C | F |
| A24T C40A | F |
| T25G A27T | F |
| T35A C40G | T |
| C33G A57G | T |
| C28T G47C | F |
